- System: H1975 cells
- EXPERIMENTAL PROTOCOL: MTT cell viability assay, H1975
- Assay type: cell-based
- CONDITION: Homo sapiens, NCI-H1975, H1975, 72 h, read-out: IC50 cell proliferation
REPORTED PROPERTY: pIC50
Scale for pIC50: -log10 of concentration given in mol/L; no unit attached.

Data request, read-out pIC50, for CN1C(=O)[C@]23SSS[C@@]1(CO)C(=O)N2[C@H]1Nc2ccccc2C1(C12c4ccccc4N[C@@H]1N1C(=O)[C@]4(CO)SS[C@]1(C(=O)N4C)[C@H]2O)[C@@H]3O (stereo partly shown)
6.66
